Cited source: ChEMBL document CHEMBL1961873

Biological target: Ribosomal protein S6 kinase beta-1 (Homo sapiens) (UniProt P23443);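 further: values are mean inhibition of p70S6K1, measured as part of the GSK PKIS panel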
Sequence (P23443 whole entry, looked up): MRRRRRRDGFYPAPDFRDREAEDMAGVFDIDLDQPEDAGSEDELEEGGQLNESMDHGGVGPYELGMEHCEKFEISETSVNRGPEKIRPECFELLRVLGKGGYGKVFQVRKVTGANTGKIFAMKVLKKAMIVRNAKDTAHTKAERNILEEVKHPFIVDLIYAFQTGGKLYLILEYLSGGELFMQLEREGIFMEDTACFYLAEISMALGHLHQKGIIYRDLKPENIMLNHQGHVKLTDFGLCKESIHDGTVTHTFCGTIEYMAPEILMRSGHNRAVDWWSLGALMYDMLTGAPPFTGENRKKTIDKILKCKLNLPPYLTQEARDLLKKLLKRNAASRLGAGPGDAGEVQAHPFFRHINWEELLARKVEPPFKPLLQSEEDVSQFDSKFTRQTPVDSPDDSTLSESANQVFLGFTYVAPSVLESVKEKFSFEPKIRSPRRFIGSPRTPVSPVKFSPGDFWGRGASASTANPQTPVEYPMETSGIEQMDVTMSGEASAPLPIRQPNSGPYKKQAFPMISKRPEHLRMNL
Conditions: at 1 µM
Value Type: inhibition (%)

Smiles Entry	Value Type	Value Reported
Cc1cc(-c2ccco2)cc(C)c1/C=C/c1cncc(-c2nn[nH]n2)c1	inhibition	-0.33
CCn1c(-c2nonc2N)nc2c(C#CC(C)(C)O)nc(O[C@@H](CN)c3ccccc3)cc21	inhibition	58.4
COc1cccc(-n2ncc3c(N/N=C/c4ccncc4)ncnc32)c1	inhibition	7.24
CCn1c(-c2nonc2N)nc2c(C#CCN)ncc(OCCCN)c21	inhibition	44.7
CCn1c(-c2nonc2N)nc2c(C#CC(C)(C)O)ncc(OC[C@@H]3CCCN3)c21	inhibition	25.4

----------
Target: Tyrosine-protein kinase BTK (Homo sapiens) (UniProt Q06187);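 further: values are mean percent inhibition of BTK across replicate measurements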
Sequence (Q06187 whole entry): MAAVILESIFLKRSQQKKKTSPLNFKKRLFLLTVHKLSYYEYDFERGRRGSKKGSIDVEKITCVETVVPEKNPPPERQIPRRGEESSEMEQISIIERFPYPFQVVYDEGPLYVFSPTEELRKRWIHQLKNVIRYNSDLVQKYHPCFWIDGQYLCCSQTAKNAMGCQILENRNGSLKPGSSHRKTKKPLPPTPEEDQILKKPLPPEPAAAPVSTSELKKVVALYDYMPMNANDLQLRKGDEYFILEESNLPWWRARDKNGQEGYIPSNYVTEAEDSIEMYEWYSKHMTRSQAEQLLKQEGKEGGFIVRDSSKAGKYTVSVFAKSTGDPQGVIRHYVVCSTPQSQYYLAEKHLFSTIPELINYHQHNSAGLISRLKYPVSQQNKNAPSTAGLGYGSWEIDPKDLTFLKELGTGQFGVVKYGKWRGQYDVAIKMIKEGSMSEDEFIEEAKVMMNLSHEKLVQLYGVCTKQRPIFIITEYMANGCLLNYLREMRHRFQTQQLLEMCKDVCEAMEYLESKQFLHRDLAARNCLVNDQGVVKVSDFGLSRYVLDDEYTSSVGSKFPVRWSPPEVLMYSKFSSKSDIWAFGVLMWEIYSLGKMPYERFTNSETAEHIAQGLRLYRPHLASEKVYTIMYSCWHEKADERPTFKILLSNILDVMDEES
Conditions: at 1 µM
The following compounds are shown together with reported inhibition values.
Value Type: inhibition (%)

Smiles Entry	Target Or Test System	Unit Text	Value Reported
COc1cccc(COc2cc(-n3cnc4ccccc43)sc2C(N)=O)c1	Tyrosine-protein kinase BTK (Homo sapiens) (UniProt Q06187)	%	-0.76
Nc1nonc1-c1nc2cnccc2n1C1CCCCC1	Tyrosine-protein kinase BTK (Homo sapiens) (UniProt Q06187)	%	-0.36
CCn1c(-c2nonc2N)nc2c(C#CC(C)(C)O)ncc(OCC3CCNCC3)c21	Tyrosine-protein kinase BTK (Homo sapiens) (UniProt Q06187)	%	-3.54
NS(=O)(=O)c1ccc(N/C=C2\C(=O)Nc3ccc4ncsc4c32)cc1	Tyrosine-protein kinase BTK (Homo sapiens) (UniProt Q06187)	%	0.29

----------
System: Tyrosine-protein kinase ABL1 (Homo sapiens), P00519 [E255K]
Details: at 0.1 µM
The following compounds are shown together with reported inhibition values.

Smiles Entry	Unit Text	inhibition
Fc1ccc(-c2ncn(C3CCNCC3)c2-c2ccnc(Oc3ccccc3)n2)cc1	%	-0.56
CCn1c(-c2nonc2N)nc2c(C#CC(C)(C)O)nc(O[C@@H](CN)c3ccccc3)cc21	%	-0.39
NS(=O)(=O)c1ccc(-c2ccc3c(NC(=O)C4CC4)n[nH]c3c2)cc1	%	2.79

----------
The following compounds are shown together with reported inhibition values.
Molecular target: Glycogen synthase kinase-3 beta (Homo sapiens);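 further: values are mean percent inhibition of GSK3B activity, from the GSK Published Kinase Inhibitor Set (PKIS) screening dataset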
Conditions: at 0.1 µM
Value Type: inhibition (%)

Smiles Entry	Unit Text	Value Reported
COc1cc(C=NNc2ncnc3c2cnn3Cc2ccccc2)ccc1O	%	5.36
COc1cccc(-n2ncc3c(N/N=C/c4ccncc4)ncnc32)c1	%	83.4
CCn1c(-c2nonc2N)nc2c(C#CC(C)(C)O)ncc(OCC3CCNCC3)c21	%	11.9
CCn1c(-c2nonc2N)nc2c(C#CC(C)(C)O)nc(O[C@@H](CN)c3ccccc3)cc21	%	53.4

----------
The following molecules are shown together with reported inhibition values.
Molecular target: Leukocyte tyrosine kinase receptor (Homo sapiens) (UniProt P29376)
Sequence (P29376 whole entry): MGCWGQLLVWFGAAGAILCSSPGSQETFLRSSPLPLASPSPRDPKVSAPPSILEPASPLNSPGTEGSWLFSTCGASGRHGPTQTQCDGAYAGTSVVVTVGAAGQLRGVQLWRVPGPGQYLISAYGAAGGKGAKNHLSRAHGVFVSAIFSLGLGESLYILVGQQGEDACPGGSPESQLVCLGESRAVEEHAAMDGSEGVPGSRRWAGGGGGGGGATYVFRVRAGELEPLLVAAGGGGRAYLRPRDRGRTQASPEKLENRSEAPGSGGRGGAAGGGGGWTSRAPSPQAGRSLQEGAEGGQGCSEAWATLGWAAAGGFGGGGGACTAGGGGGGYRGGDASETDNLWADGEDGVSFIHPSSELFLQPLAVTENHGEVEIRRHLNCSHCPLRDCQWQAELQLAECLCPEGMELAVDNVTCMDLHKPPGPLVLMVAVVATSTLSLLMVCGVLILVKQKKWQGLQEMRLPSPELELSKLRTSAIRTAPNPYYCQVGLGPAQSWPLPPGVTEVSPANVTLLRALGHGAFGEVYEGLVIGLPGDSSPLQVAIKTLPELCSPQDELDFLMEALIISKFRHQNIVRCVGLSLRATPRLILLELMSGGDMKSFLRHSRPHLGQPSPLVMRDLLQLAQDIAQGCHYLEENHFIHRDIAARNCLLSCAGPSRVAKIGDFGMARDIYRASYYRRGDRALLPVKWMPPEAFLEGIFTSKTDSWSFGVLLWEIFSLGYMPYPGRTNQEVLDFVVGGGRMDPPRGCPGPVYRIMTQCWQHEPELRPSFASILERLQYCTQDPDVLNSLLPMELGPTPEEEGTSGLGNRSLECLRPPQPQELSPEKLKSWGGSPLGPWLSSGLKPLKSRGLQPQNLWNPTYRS
Conditions: at 0.1 µM
Description: GSK_PKIS: LTK mean inhibition at 0.1 uM [Nanosyn]
Value Type: inhibition

Smiles Entry	Value Type	Value Reported
COc1cccc(-n2ncc3c(N/N=C/c4ccncc4)ncnc32)c1	inhibition	4.93%
CCn1c(-c2nonc2N)nc2c(C#CCN)ncc(OCCCN)c21	inhibition	-1.04%
COc1cccc(COc2cc(-n3cnc4ccccc43)sc2C(N)=O)c1	inhibition	0.36%
CCn1c(-c2nonc2N)nc2c(C#CC(C)(C)O)nc(O[C@@H](CN)c3ccccc3)cc21	inhibition	35.4%

----------
Target: Serine/threonine-protein kinase BRSK2 (Homo sapiens) (UniProt Q8IWQ3);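 further: values are mean inhibition of BRSK2 from the GSK PKIS screening dataset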
Conditions: at 0.1 µM
Value Type: inhibition (%)

Smiles Entry	Value Reported
COc1cccc(-n2ncc3c(N/N=C/c4ccncc4)ncnc32)c1	18.6
NS(=O)(=O)c1ccc(-c2ccc3c(NC(=O)C4CC4)n[nH]c3c2)cc1	4.08
CCn1c(-c2nonc2N)nc2c(C#CC(C)(C)O)nc(O[C@@H](CN)c3ccccc3)cc21	13.7
NC(=O)c1sc(-n2cnc3cc(C(F)(F)F)ccc32)cc1OCc1ccccc1Br	2.43

----------
Biological target: Hepatocyte growth factor receptor (Homo sapiens) (UniProt P08581);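 further: each value is an averaged inhibition figure for MET, taken as the mean across measurements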
Conditions: at 1 µM
The following compounds are shown together with reported inhibition values.
Value Type: inhibition (%)

Smiles Entry	Value Type	Value Reported
Cc1cc(-c2ccco2)cc(C)c1/C=C/c1cncc(-c2nn[nH]n2)c1	inhibition	3.8
CCn1c(-c2nonc2N)nc2c(C#CC(C)(C)O)nc(O[C@@H](CN)c3ccccc3)cc21	inhibition	-0.12
CCn1c(-c2nonc2N)nc2c(C#CC(C)(C)O)ncc(OC[C@@H]3CCCN3)c21	inhibition	5.81

----------
The following compounds are shown together with reported inhibition values.
System: Platelet-derived growth factor receptor alpha (Homo sapiens), P16234 [D842V]
Sequence (P16234 whole entry D842V): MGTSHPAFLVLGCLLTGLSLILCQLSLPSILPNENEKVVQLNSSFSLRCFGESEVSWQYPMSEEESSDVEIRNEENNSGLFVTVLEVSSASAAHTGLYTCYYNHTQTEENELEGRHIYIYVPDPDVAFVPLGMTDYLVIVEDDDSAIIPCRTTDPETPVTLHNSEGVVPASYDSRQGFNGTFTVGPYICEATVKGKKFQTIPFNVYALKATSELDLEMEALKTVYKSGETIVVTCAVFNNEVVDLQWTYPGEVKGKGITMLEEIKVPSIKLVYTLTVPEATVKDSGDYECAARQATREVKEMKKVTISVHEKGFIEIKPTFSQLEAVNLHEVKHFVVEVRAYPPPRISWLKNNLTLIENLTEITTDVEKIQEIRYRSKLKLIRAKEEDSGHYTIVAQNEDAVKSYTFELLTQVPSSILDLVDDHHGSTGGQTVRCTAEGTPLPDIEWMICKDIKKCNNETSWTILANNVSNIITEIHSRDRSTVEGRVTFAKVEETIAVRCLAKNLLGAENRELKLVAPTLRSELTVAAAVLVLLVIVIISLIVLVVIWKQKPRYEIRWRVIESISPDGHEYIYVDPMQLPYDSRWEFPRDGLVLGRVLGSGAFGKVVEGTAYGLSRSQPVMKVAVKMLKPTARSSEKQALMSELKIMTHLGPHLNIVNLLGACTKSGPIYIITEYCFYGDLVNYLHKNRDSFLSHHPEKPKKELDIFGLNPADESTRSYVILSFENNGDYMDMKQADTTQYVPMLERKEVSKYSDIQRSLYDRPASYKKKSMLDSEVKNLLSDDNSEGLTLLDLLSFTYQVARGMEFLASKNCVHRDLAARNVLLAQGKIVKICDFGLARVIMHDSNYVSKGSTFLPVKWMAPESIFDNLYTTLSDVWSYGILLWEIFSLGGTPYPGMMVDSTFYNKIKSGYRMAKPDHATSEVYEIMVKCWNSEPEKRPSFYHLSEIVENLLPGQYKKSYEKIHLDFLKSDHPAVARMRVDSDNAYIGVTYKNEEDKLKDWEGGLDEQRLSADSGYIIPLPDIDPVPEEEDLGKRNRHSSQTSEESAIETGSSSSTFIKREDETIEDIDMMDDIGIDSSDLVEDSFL
Details: at 0.1 µM

Smiles Entry	inhibition (%)
NS(=O)(=O)c1ccc(-c2ccc3c(NC(=O)C4CC4)n[nH]c3c2)cc1	1.45
COc1cc(C=NNc2ncnc3c2cnn3Cc2ccccc2)ccc1O	6.24
COc1cc2c(cc1Nc1nc(Nc3ccsc3C(N)=O)c3cc[nH]c3n1)N(C(=O)CN(C)C)CCC2	2.44
CCn1c(-c2nonc2N)nc2c(C#CCN)ncc(OCCCN)c21	0.26

----------
System: Tyrosine-protein kinase ABL1 (Homo sapiens), P00519 [T315I]
Conditions: at 0.1 µM

Smiles Entry	Target Or Test System	inhibition, %
COc1cccc(-n2ncc3c(N/N=C/c4ccncc4)ncnc32)c1	Tyrosine-protein kinase ABL1 (Homo sapiens), P00519 [T315I]	42.4
COc1cc2c(cc1Nc1nc(Nc3ccsc3C(N)=O)c3cc[nH]c3n1)N(C(=O)CN(C)C)CCC2	Tyrosine-protein kinase ABL1 (Homo sapiens), P00519 [T315I]	0.06
CCn1c(-c2nonc2N)nc2c(C#CC(C)(C)O)ncc(OC[C@@H]3CCCN3)c21	Tyrosine-protein kinase ABL1 (Homo sapiens), P00519 [T315I]	0.19
NS(=O)(=O)c1ccc(N/C=C2\C(=O)Nc3ccc4ncsc4c32)cc1	Tyrosine-protein kinase ABL1 (Homo sapiens), P00519 [T315I]	6.29

----------
Molecular target: Serine/threonine-protein kinase pim-3 (Homo sapiens) (UniProt Q86V86);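 further: mean inhibition of PIM3 kinase activity, recorded in the GSK_PKIS screening set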
Conditions: at 0.1 µM
Use 1% as the dividing line for inhibition, with the line itself on the class 1 side and lower values as class 0.

Smiles Entry	Cat
NS(=O)(=O)c1ccc(N/C=C2\C(=O)Nc3ccc4ncsc4c32)cc1	class 0
CCn1c(-c2nonc2N)nc2c(C#CCN)ncc(OCCCN)c21	class 1
COc1cccc(COc2cc(-n3cnc4ccccc43)sc2C(N)=O)c1	class 0
COc1cc2c(cc1Nc1nc(Nc3ccsc3C(N)=O)c3cc[nH]c3n1)N(C(=O)CN(C)C)CCC2	class 1
Cc1cc(-c2ccco2)cc(C)c1/C=C/c1cncc(-c2nn[nH]n2)c1	class 0
COc1cc(C=NNc2ncnc3c2cnn3Cc2ccccc2)ccc1O	class 1
CCn1c(-c2nonc2N)nc2c(C#CC(C)(C)O)nc(O[C@@H](CN)c3ccccc3)cc21	class 1

----------
Biological target: Mitogen-activated protein kinase kinase kinase kinase 2 (Homo sapiens) (UniProt Q12851);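 further: values given as mean percent inhibition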
Sequence (Q12851 whole entry): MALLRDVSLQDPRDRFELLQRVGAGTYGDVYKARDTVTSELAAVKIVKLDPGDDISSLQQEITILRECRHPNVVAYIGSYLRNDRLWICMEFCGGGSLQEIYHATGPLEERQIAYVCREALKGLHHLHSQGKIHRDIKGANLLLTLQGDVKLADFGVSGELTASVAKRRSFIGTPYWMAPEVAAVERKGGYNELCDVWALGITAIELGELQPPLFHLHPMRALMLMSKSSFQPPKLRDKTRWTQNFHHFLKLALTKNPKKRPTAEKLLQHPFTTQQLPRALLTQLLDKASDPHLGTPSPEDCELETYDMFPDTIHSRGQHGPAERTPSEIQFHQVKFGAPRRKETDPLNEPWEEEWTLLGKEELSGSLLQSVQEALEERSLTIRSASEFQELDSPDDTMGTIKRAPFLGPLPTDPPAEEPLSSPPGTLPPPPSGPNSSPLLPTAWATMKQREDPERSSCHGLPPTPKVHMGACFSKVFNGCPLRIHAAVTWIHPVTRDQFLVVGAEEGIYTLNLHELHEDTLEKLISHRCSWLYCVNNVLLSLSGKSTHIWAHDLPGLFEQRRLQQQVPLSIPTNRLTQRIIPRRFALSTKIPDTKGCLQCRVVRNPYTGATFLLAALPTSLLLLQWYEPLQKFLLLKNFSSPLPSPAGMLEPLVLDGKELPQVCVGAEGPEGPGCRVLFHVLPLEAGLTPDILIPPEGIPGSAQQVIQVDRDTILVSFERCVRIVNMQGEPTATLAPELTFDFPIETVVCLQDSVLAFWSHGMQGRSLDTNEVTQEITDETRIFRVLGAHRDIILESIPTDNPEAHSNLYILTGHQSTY
Settings: at 0.1 µM
The following compounds are shown together with reported inhibition values.
Value Type: inhibition (%)

Smiles Entry	Target Or Test System	Value Reported
CCn1c(-c2nonc2N)nc2c(C#CC(C)(C)O)ncc(OCC3CCNCC3)c21	Mitogen-activated protein kinase kinase kinase kinase 2 (Homo sapiens) (UniProt Q12851)	1.42
Cc1cc(-c2ccco2)cc(C)c1/C=C/c1cncc(-c2nn[nH]n2)c1	Mitogen-activated protein kinase kinase kinase kinase 2 (Homo sapiens) (UniProt Q12851)	1.39
NS(=O)(=O)c1ccc(N/C=C2\C(=O)Nc3ccc4ncsc4c32)cc1	Mitogen-activated protein kinase kinase kinase kinase 2 (Homo sapiens) (UniProt Q12851)	12.8
COc1cccc(-n2ncc3c(N/N=C/c4ccncc4)ncnc32)c1	Mitogen-activated protein kinase kinase kinase kinase 2 (Homo sapiens) (UniProt Q12851)	2.12
CCn1c(-c2nonc2N)nc2c(C#CC(C)(C)O)ncc(OC[C@@H]3CCCN3)c21	Mitogen-activated protein kinase kinase kinase kinase 2 (Homo sapiens) (UniProt Q12851)	2.41

----------
Biological target: ALK tyrosine kinase receptor (Homo sapiens)
Details: at 1 µM
The following compounds are shown together with reported inhibition values.

Smiles Entry	Target Or Test System	inhibition / %
NS(=O)(=O)c1ccc(-c2ccc3c(NC(=O)C4CC4)n[nH]c3c2)cc1	ALK tyrosine kinase receptor (Homo sapiens)	3.11
NC(=O)c1sc(-n2cnc3cc(C(F)(F)F)ccc32)cc1OCc1ccccc1Br	ALK tyrosine kinase receptor (Homo sapiens)	1.22
Cc1cc(-c2ccco2)cc(C)c1/C=C/c1cncc(-c2nn[nH]n2)c1	ALK tyrosine kinase receptor (Homo sapiens)	2.74
CCn1c(-c2nonc2N)nc2c(C#CC(C)(C)O)ncc(OCC3CCNCC3)c21	ALK tyrosine kinase receptor (Homo sapiens)	0.19

----------
Molecular target: Serine/threonine-protein kinase Chk2 (Homo sapiens) (UniProt O96017);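 further: reported value is the mean inhibition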
Sequence (O96017 whole entry): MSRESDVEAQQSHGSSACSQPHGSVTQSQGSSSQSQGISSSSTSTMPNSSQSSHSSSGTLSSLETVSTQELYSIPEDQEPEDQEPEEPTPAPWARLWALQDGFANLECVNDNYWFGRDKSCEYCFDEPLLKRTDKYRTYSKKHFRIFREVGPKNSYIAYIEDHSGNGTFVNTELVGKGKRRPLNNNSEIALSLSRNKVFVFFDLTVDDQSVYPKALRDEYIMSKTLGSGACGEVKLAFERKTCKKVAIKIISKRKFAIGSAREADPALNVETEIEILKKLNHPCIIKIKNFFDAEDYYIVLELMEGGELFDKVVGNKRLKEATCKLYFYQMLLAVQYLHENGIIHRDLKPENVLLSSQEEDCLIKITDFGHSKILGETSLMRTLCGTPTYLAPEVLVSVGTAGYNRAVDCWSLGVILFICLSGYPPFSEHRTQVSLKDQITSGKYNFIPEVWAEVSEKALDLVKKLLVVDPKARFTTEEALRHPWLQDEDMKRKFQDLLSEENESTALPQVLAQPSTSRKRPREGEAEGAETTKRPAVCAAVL
Conditions: at 1 µM
The following compounds are shown together with reported inhibition values.

Smiles Entry	inhibition (%)
NS(=O)(=O)c1ccc(N/C=C2\C(=O)Nc3ccc4ncsc4c32)cc1	19.1
COc1cccc(-n2ncc3c(N/N=C/c4ccncc4)ncnc32)c1	4.89
Fc1ccc(-c2ncn(C3CCNCC3)c2-c2ccnc(Oc3ccccc3)n2)cc1	1.46
NC(=O)c1sc(-n2cnc3cc(C(F)(F)F)ccc32)cc1OCc1ccccc1Br	0.32
